- measurement-target: High affinity nerve growth factor receptor (Homo sapiens)
- Sequence (P04629 whole entry): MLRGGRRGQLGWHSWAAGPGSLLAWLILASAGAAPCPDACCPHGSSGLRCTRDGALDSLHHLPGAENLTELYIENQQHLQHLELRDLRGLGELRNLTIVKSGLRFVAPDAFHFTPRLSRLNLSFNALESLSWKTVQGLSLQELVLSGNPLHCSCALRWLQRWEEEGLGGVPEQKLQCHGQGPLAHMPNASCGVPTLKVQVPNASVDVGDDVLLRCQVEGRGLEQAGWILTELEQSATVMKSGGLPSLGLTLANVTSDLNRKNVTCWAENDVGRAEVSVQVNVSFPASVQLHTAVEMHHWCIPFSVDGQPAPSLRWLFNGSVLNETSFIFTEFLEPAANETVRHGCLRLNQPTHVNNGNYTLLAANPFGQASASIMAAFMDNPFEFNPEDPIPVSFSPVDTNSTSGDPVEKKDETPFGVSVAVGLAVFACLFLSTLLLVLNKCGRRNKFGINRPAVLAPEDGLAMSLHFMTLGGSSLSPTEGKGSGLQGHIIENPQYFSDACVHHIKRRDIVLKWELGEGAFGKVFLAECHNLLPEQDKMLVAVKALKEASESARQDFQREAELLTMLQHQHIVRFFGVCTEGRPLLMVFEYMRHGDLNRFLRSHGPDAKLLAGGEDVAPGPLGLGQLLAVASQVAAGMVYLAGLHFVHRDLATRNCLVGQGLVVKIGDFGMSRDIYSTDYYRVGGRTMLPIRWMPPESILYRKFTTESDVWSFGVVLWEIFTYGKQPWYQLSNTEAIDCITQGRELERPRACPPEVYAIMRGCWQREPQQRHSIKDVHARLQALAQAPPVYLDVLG
pIC50: −log10 of the molar value.
measurement-name: pIC50

Consider the following illustrative entries.
CCCCSCc1ccc2c(c1)c1c3c(c4c5cc(CSCCCC)ccc5n5c4c1n2[C@H]1C[C@](O)(C(=O)OC)[C@]5(C)O1)CNC3=O < 6.00
CCSCc1ccc2c(c1)c1c3c(c4c5ccccc5n5c4c1n2[C@H]1C[C@](O)(C(=O)OC)[C@]5(C)O1)CNC3=O < 6.00

stdin: Field request: pIC50 | item: `CCCSCc1ccc2c(c1)c1c3c(c4c5cc(CSCCC)ccc5n5c4c1n2[C@H]1C[C@](O)(C(=O)OC)[C@]5(C)O1)CNC3=O`
stdout: < 5.00
